Test system: RKO
ASSAY_OVERVIEW: Small-molecule inhibitor proliferation assay (crystal violet), RKO
Format: cell-based
CONDITION_SET: Homo sapiens, 168 h, β-catenin pathway Non-active, proliferation 7 d post treatment, read-out: IC50 Dasatinib
REPORTED_PROPERTY: IC50

State the recorded IC50 for this entry: Cc1nc(Nc2ncc(C(=O)Nc3c(C)cccc3Cl)s2)cc(N2CCN(CCO)CC2)n1 [dasatinib] > 800 nM

* * *

System: Colo205
ASSAY_OVERVIEW: Small-molecule inhibitor proliferation assay (crystal violet), Colo205
Assay type: cell-based
CONDITION_SET: Homo sapiens, COLO 205, 168 h, β-catenin pathway active, proliferation 7 d post treatment, read-out: IC50 Dasatinib
REPORTED_PROPERTY: pIC50
Friendly reminder that pIC50 comes from taking -log10 of the concentration in mol/L.

Need pIC50 of Cc1nc(Nc2ncc(C(=O)Nc3c(C)cccc3Cl)s2)cc(N2CCN(CCO)CC2)n1 [dasatinib] , thanks. 7.10
